METHOD: Plasma pharmacokinetics of MB076 after single IV dose in thigh-infected mice
Assay type: in vivo, mouse
STATED CONDITIONS: mouse; 50 mg/kg single IV, plasma, thigh-infected mice
RECORDED ENDPOINT: AUC(0-inf) (ng·h/mL)
# output: bare number, implied unit ng·h/mL

[in] Reported AUC(0-inf) for `Nc1nnc(SCC(=O)N[C@@H](Cn2cc(C(=O)O)nn2)B(O)O)s1` : what is it?
[out] 31900

----------
METHOD: Plasma pharmacokinetics of MB076 after single IV dose in thigh-infected mice
Format: in vivo, mouse
STATED CONDITIONS: mouse; 25 mg/kg single IV, plasma, thigh-infected mice
RECORDED ENDPOINT: AUC(0-inf) (ng·h/mL)
Enter your answer as a number in ng·h/mL; do not include the unit.

[in] What value of AUC(0-inf) has been reported for the following molecule? Nc1nnc(SCC(=O)N[C@@H](Cn2cc(C(=O)O)nn2)B(O)O)s1 [MB076]
[out] 17800
